Let's go through some recorded pIC50 values for UniProt Q13547 together.
Sequence (Q13547 whole entry): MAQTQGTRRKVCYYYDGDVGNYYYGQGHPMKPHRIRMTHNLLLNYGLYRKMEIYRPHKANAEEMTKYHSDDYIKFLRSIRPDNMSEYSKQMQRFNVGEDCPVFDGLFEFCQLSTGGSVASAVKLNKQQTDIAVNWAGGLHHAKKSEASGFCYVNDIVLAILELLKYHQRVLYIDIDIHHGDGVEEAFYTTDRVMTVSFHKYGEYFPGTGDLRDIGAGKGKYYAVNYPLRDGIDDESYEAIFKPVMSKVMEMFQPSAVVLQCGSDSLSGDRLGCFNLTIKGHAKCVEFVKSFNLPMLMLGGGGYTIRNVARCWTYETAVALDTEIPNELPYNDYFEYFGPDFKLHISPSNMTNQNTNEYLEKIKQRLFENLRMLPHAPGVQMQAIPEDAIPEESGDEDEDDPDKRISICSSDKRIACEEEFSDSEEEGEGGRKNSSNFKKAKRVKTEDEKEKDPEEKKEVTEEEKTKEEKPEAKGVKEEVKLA
Value format note: pIC50 is -log10 of concentration (mol/L); just state the number.

Recorded results for 5 molecules are shown here.
CCCCCN(CC)CCn1cnc2cc(/C=C/C(=O)NO)ccc21 [Compound 88] : 7.33
CCOCc1nc2cc(/C=C/C(=O)NO)ccc2n1CC(C)(C)CN(C)C [Compound 5] : 6.77
CCCCCCc1nc2cc(/C=C/C(=O)NO)ccc2n1CCNCC [Compound 52] : 7.60
CCCNc1nc2cc(/C=C/C(=O)NO)ccc2n1CCN(CC)CC [Compound 105] : 6.89
CN(C)CC(C)(C)Cn1c(C2CCCCC2)nc2cc(/C=C/C(=O)NO)ccc21 [Compound 24] : 6.29

QUERY: GET /values?readout=pIC50&system=UniProt Q13547&item= CCN(CC)CCn1c(CCNC(=O)C(C)(C)C)nc2cc(/C=C/C(=O)NO)ccc21 [Compound 60]
RESULT: 7.00

QUERY: Same read-out for CCCCc1nc2cc(/C=C/C(=O)NO)ccc2n1C1CCN(Cc2ccccc2)CC1 [Compound 48] ?
RESULT: 6.37

QUERY: Continue with CCCCCc1nc2cc(/C=C/C(=O)NO)ccc2n1C1CCCN(C)C1 (stereo not drawn) [Compound 86]
RESULT: 6.80

QUERY: Then this molecule: CCCCc1nc2cc(/C=C/C(=O)NO)ccc2n1CCN(C(C)C)C(C)C [Compound 43]
RESULT: 6.48
